Biological target: Insulin receptor on differentiated 3T3-L1 adipocytes (UniProt P15208;P15208 P15208:28-748,P15208:753-1372)
Sequence (P15208 28-748, chain 1 of 2): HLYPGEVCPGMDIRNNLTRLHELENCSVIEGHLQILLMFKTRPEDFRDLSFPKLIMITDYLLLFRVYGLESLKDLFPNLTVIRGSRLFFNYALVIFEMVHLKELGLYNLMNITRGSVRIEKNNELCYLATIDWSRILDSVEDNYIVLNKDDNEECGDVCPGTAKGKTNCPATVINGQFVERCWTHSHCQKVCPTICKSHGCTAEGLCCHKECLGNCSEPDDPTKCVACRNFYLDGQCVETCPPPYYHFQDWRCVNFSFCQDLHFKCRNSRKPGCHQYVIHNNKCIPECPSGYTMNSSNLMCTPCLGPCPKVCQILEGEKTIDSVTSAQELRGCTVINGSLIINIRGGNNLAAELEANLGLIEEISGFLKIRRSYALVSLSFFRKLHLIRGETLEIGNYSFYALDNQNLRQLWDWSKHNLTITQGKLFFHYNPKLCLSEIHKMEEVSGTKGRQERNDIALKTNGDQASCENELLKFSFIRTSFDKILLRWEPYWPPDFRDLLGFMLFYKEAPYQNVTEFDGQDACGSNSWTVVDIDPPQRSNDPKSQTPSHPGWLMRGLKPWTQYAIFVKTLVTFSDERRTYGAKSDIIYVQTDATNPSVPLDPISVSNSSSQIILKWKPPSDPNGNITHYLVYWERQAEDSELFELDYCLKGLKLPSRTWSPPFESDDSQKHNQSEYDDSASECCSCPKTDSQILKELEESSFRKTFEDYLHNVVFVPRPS
Sequence (P15208 753-1372, chain 2 of 2): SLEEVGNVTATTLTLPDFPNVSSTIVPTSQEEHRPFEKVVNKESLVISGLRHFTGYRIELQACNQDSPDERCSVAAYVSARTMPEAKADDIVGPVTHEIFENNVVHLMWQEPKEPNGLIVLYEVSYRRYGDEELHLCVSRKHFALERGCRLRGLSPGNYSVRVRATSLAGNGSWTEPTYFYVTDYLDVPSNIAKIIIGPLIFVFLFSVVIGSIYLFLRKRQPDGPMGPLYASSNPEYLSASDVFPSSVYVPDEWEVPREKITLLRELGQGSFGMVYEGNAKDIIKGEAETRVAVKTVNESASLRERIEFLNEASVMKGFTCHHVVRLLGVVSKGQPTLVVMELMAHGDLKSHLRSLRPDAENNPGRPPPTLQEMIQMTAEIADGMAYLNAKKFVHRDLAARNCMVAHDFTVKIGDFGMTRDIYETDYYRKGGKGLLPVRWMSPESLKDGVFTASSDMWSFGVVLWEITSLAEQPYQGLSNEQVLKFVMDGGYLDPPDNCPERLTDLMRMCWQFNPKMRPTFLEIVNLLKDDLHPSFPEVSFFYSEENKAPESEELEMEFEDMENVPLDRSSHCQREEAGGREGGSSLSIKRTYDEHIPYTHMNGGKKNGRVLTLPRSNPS
Test: cell_activity; lipolysis (glycerol release) inhibition in 3T3-L1 adipocytes; insulin 2.07 nM
Conditions: chain copies: 2
EXPERIMENTAL_ENDPOINT: IC50 (nM)

[[record]]
binder = "CCUGGTGTTTAGACGACCTATAGGTTAGG (ssDNA, CmeCmeUmeGGPGZPLPAmeGAmeCfGAmeCfCmePAmePAGGmePPAmeGmeGme-idT; me = 2'-OMe, f = 2'-F, P = naphthyl-dU, Z = benzyl-dU, L = C3 linker, 3' idT [2'-OMe at 1,2,3,11,13,16,18,20,24,27,28,29; 2'-F at 14,17; naphthyl-dU at 6,9,10,19,21,25,26; benzyl-dU at 8; C3 linker (left out) between 9 and 10; 3' idT (left out) after 29]) [A48m combi 3]"
observed_measurement = 11

